Test: Antiinflammatory activity in human neutrophils assessed as inhibition of fMLP/CB-induced elastase release at 10 ug/mL after 5 mins by spectrophotometric analysis relative to control
Format: functional
Settings: Neutrophil
EXPERIMENTAL_ENDPOINT: inhibition at 10 µg/mL (%)
Kindly provide the numeric value in % only, without the unit symbol.

# inhibition at 10 µg/mL (compound: COC(=O)c1cccc2oc3cc(CO)cc(O)c3c(=O)c12 [SYDOWININ A] ) is 28.7

# inhibition at 10 µg/mL (compound: COC(=O)[C@@H]1c2c(oc3cc(CO)cc(O)c3c2=O)C=C[C@H]1O ) is 98.9

# inhibition at 10 µg/mL (compound: CC(C)CCC[C@](C)(O)c1ccc(CO)cc1O [(S)-(+)-SYDONOL] ) is 65.3

# inhibition at 10 µg/mL (compound: Cc1cc(O)cc(Oc2cc(C)cc(O)c2)c1 [DIORCINOL] ) is 39.8

# inhibition at 10 µg/mL (compound: C/C(=C\CCC(C)CO)c1ccc(CO)cc1O (stereo not given) ) is 6.68

# inhibition at 10 µg/mL (compound: C/C(=C\CCC(C)C)c1ccc(CO)cc1O ) is 84.3

# inhibition at 10 µg/mL (compound: COC(=O)c1c(O)ccc2oc3cc(CO)cc(O)c3c(=O)c12 [SYDOWININ B] ) is 85

# inhibition at 10 µg/mL (compound: CC(C)CCC[C@](C)(O)c1ccc(C(=O)O)cc1O ) is 2.56

# inhibition at 10 µg/mL (compound: CO[C@@](C)(CCCC(C)C)c1ccc(CO)cc1O [(7S)-(+)-7-O-METHYLSYDONOL] ) is 29.8

# inhibition at 10 µg/mL (compound: CNC(=O)c1cc(Oc2ccc(NC(=O)Nc3ccc(Cl)c(C(F)(F)F)c3)cc2)ccn1 [SORAFENIB] ) is 83
